Where these numbers come from: patent US11272706B2

- Tested on: Drechsiera siccans
- protocolText: 50% inhibition of mycelium growth (IC50), five isolates, DMI fungicides
- Format: cell-based
- conditionInfo: isolate 05/VQ, read-out: IC50 isolate 05/VQ

compound: CC(C)(C)C(O)(CCc1ccc(Cl)cc1)Cn1cncn1 (centres unmarked)
measurementUnits: µg/mL
IC50: 0.44

compound: CCCC1COC(Cn2cncn2)(c2ccc(Cl)cc2Cl)O1 (centres unmarked)
measurementUnits: µg/mL
IC50: 0.3

compound: OC(Cc1ccccc1Cl)(Cn1nc[nH]c1=S)C1(Cl)CC1 (centres unmarked)
measurementUnits: µg/mL
IC50: 0.14

compound: CC(C1CC1)C(O)(Cn1cncn1)c1ccc(Cl)cc1 (centres unmarked)
measurementUnits: µg/mL
IC50: 0.29

compound: Fc1ccc([C@]2(Cn3cncn3)O[C@H]2c2ccccc2Cl)cc1 (racemic)
measurementUnits: µg/mL
IC50: 0.4
